# test_target: T1, hPD-1-Fc (human, UniProt Q15116 25-167)
# T1 construct: domain: IgV domain; also called human PD-1-Fc; not shown: human IgG1 Fc
# T1 sequence (Q15116 25-167 limits assumed): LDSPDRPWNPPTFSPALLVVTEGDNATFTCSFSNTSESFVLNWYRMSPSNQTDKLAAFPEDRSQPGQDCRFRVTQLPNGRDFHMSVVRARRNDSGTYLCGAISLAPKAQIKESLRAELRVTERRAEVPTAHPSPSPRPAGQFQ
# assay_protocol: blocking ELISA, hPD-1-Fc to hPD-L1-Fc
recorded_endpoint: IC50 (nM)
Just the number in nM, nothing appended.

// known answers, use as guide
binder	recorded_endpoint	test_value
23A8 (antibody, human IgG1, V domains shown) VH: EVQLLESGGGLVQPGGSLRLSCAASGFTFSSSAMHWVRQAPGKGLEWVSGISGSGSSTYYADSVKGRFTISRDNSKNTLYLQMNSLRAEDTAVYYCARDNNYYYYMDVWGKGTTVTVSS VL: DIQMTQSPSSLSASVGDRVTITCRASQSIGTWLAWYQQKPGKAPKLLIYAASTLRSGVPSRFSGSGSGTDFTLTISSLQPEDFATYYCQQSYSTPYTFGQGTKLEIK	IC50	1.85
23A11 (antibody, human IgG1, V domains shown) VH: QVQLVQSGAEVKKPGSSVKVSCKASGYTFTDYSLHWVRQAPGQGLEWMGEVIPMFDTAYYAQTFQGRVTITADESTSTAYMELSSLRSEDTAVYYCAREPFTMVRGGRYYYYGMDVWGQGTTVTVSS VL: DIQMTQSPSSLSASVGDRVTITCRASQNINKNLNWYQQKPGKAPKLLIYDASNLQSGVPSRFSGSGSGTDFTLTISSLQPEDFATYYCQHSETFGQGTKVEIK	IC50	2.61
19B10 (antibody, human IgG1, V domains shown) VH: EVQLLESGGGLVQPGGSLRLSCAASGFTFSSYAMHWVRQAPGKGLEWVSGISNSGGNTYYADSVKGRFTISRDNSKNTLYLQMNSLRAEDTAVYYCARDNYYYYMDVWGKGTTVTVSS VL: DIQMTQSPSSLSASVGDRVTITCRASQSVSTWLAWYQQKPGKAPKLLIYAASNLETGVPSRFSGSGSGTDFTLTISSLQPEDFATYYCQQTYSTPYTFGQGTKLEIK	IC50	28.1

stdin: Which IC50 is listed for 24H9 (antibody, human IgG1, V domains shown) VH: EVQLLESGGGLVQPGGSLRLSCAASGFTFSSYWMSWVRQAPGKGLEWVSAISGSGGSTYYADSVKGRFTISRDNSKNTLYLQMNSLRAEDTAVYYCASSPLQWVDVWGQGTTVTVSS VL: DIQMTQSPSSLSASVGDRVTITCRASQGISSWLAWYQQKPGKAPKLLIYSASSLQSGVPSRFSGSGSGTDFTLTISSLQPEDFATYYCQQANSFPFTFGPGTKVDIK ?
stdout: 2.28
